PROTOCOL SUMMARY: Elimination half-life in Beagle dog at 2.5 mg/kg, po
Assay type: ADME, organism-based, Canis lupus familiaris
EXPERIMENTAL CONDITIONS: in vivo, read-out: beta t1/2 (converted)
MEASURED QUANTITY: half-life (h)
Numbers only, in h.

Incoming: half-life for "C[C@]1(c2cc(NC(=O)c3ccc(C#N)cn3)ccc2F)N=C(N)CO[C@@H]1F" ?
Outgoing: 25

###

PROTOCOL SUMMARY: Dissociation constant, pKa of the compound by potentiometric titration assay
Format: physicochemical
Assign true whenever pKa does not fall below 8; assign false whenever it does.

Check out these entries, answers already filled in.
COc1cnc(C(=O)Nc2cc([C@@]3(C)N=C(N)CO[C@@H]3F)ccn2)cn1 (racemic) = false
CC1(c2ccccc2)COCC(N)=N1 (stereo not given) = true
COc1cnc(C(=O)Nc2ccc(F)c([C@]3(C)COCC(N)=N3)c2)cn1 = true
C[C@@]1(c2cccc(NC(=O)c3ccc(Cl)cn3)c2)COCC(N)=N1 = true
COc1cnc(C(=O)Nc2ccc(F)c([C@@]3(C)N=C(N)CO[C@]3(F)C(F)(F)F)c2)cn1 = false
COc1cnc(C(=O)Nc2ccc(F)c([C@@]3(C)N=C(N)CO[C@H]3F)c2)cn1 = false
Cc1cc(Cl)cnc1C(=O)Nc1ccc(F)c([C@@]2(C)N=C(N)CO[C@@H]2F)c1 = false
COc1cnc(C(=O)Nc2ccc(F)c([C@@]3(C)N=C(N)CO[C@@]3(F)C(F)(F)F)c2)cn1 = false

For the next question, use this compound.
Incoming: Does pKa meet or surpass 8 for COc1cnc(C(=O)Nc2ccnc([C@@]3(C)N=C(N)CO[C@@H]3F)c2)cn1 (racemic) ?
Outgoing: false

###

Hi there, I'd appreciate the recorded Kp for every entry that follows.
PROTOCOL SUMMARY: Ratio of drug level in brain to plasma of pathogen free CD1 Swiss mouse at 10 mg/kg, po
Assay type: ADME, organism-based
Answers are plain numbers.

COc1cnc(C(=O)Nc2ccc(F)c([C@@]3(C)N=C(N)CO[C@@H]3F)c2)cn1 = 0.65

Lab note: next compound to report on.
Incoming: Need Kp, item "C[C@]1(c2cc(NC(=O)c3ccc(C#N)cn3)ccc2F)N=C(N)CO[C@@H]1F"
Outgoing: 0.33

###

Task for the reader: assign each of the following molecules its reported concentration at 4 h.
PROTOCOL SUMMARY: Drug uptake in pathogen free CD1 Swiss mouse brain at 10 mg/kg, po after 4 hrs
Assay type: ADME, organism-based
EXPERIMENTAL CONDITIONS: read-out: Drug uptake
Numbers only, in ng/g.

COc1cnc(C(=O)Nc2ccc(F)c([C@@]3(C)N=C(N)CO[C@@H]3F)c2)cn1 = 195

Proceed to the following item.
Incoming: Entry "C[C@]1(c2cc(NC(=O)c3ccc(C#N)cn3)ccc2F)N=C(N)CO[C@@H]1F" : reported concentration at 4 h = ?
Outgoing: 98

###

PROTOCOL SUMMARY: Distribution coefficient, logD of the compound by chromatography
Type: physicochemical
EXPERIMENTAL CONDITIONS: octanol/water
MEASURED QUANTITY: chromatographic logD
One number for each entry.

COc1cnc(C(=O)Nc2ccc(F)c([C@@]3(C)N=C(N)CO[C@@]3(F)C(F)(F)F)c2)cn1 = 3.43

Proceeding to the next molecule to report its chromatographic logD.
Incoming: // returns reported chromatographic logD for input "COc1cnc(C(=O)Nc2ccc(F)c([C@@]3(C)N=C(N)CO[C@@H]3F)c2)cn1"
Outgoing: 2.04
